Assay: Human liver microsomal stability of compound in microsomal protein, PBS buffer pH 7.4, NADPH, glucose-6-phosphate and glucose-6-phosphate dehydrogenase media. Aliquotes were taken at 5 time points and after stopping the reaction, supernatants were analyzed using HPLC coupled with a tandem mass spectrometer. The elimination constant, half-life, and intrinsic clearance are determined as results using linear regression analysis. The assay has been performed by Enamine biological services, Bienta Ltd.The protocol is publicly available: dx.doi.org/10.17504/protocols.io.5qpvokdb9l4o/v1
Format: ADME, microsomes, Microsome
Conditions: liver microsomes
Recorded log10(microsomal CLint) values for a group of compounds are listed next.
assayReadout: log10(microsomal CLint) (log10 of the value in µL/min/mg)

- COc1ccc([C@H](Cc2nnn[nH]2)NC(=O)c2ncnc3[nH]ccc23)cc1: 0.30
- CNC(=O)Cn1cc(-c2cc3c(N[C@@H](c4ccc5c(c4)OCCO5)C(C)C)ncnc3[nH]2)cn1: 2.08
- Cc1nn(C)cc1-c1cc2c(N[C@@H](c3ccc4c(c3)S(=O)(=O)CCC4)C(C)C)ncnc2[nH]1: 2.40
- CC(C)[C@@H](Nc1ncnc2[nH]c(-c3cnn(CC(N)=O)c3)cc12)c1ccc2c(n1)OCCO2: 1.15
- C[C@@H](C(=O)O)[C@@H](NC(=O)c1ncnc2[nH]ccc12)c1ccc(Br)cc1: 0.70
- CC(C)[C@H](CO)Nc1ncnc2[nH]ccc12: 0.78
- CNC(=O)c1c[nH]c2ncnc(N[C@H](c3ccc4c(c3)S(=O)(=O)CCC4)C(C)C)c12: 2.41
- COCCNC(=O)c1c[nH]c2ncnc(N[C@@H](c3ccc4c(c3)S(=O)(=O)CCC4)C(C)C)c12: 2.73
- CC(C)[C@@H](Nc1ncnc2[nH]c(-c3cnn(C)c3C#N)cc12)c1ccc2c(n1)NC(=O)CO2: 1.85
- CC(C)[C@H](Nc1ncnc2[nH]cc(C(=O)NC3CC3)c12)c1ccc2c(c1)S(=O)(=O)CCC2: 0.70
- CC(C)[C@@H](Nc1ncnc2[nH]ccc12)c1ccc2c(c1)S(=O)(=O)CCO2: 1.26
- CC(C)[C@H](Nc1ncnc2[nH]c(-c3cnn(C)c3C#N)cc12)c1ccc2c(n1)NC(=O)CO2: 2.14
- C[C@H](C(=O)O)[C@@H](NC(=O)c1ncnc2[nH]ccc12)c1ccc(Br)cc1: 0.48
- CNC(=O)c1cc2c(N[C@H](c3ccc4c(c3)S(=O)(=O)CCC4)C(C)C)ncnc2[nH]1: 1.83
- CC(C)[C@@H](Nc1ncnc(N)c1Cl)c1ccc2c(c1)S(=O)(=O)CCC2: 1.90
- CC(C)[C@H](Nc1ncnc2[nH]c(-c3cnn(CC(=O)N(C)C)c3)cc12)c1ccc2c(c1)S(=O)(=O)CCC2: 1.96
- CNC(=O)c1c[nH]c2ncnc(N[C@@H](c3ccc4c(c3)OCCO4)C(C)C)c12: 1.90
- CC(C)[C@@H](Nc1ncnc2[nH]c(-c3cnn(C)c3C#N)cc12)c1ccc2c(c1)S(=O)(=O)CCC2: 2.69
